# Test system: KM12
# test protocol: NCI tumour cell line growth inhibition, 48 h
Activity calls are given as the source filed them. Rule as the data show it: active = GI50 up to about 1.1 µM and inactive = higher.
Some molecules, each annotated with its measured GI50.

COc1cc(C2OC(N)=C(C#N)C3=C2C(C)CCC3)cc(OC)c1OC (stereo not given)    > 100 µM (inactive)
COc1cc2c(cc1O)C(C)Cc1cc3c(cc1N(C)CC2)OCO3 (stereo not given)    4.15 µM (inactive)

Query :: Can you share its GI50? I mean this molecule: "CCOC(=O)Cc1c(C(=O)OCC)[n+]([O-])c2cc(Cl)c(Cl)cc2[n+]1[O-]"
Result :: 1.32 µM (inactive)

----------
# System: HOP-62
# test protocol: NCI tumour cell line growth inhibition, 48 h
Activity calls are given as the source filed them. Rule as the data show it: active = GI50 up to about 1.1 µM and inactive = higher.
Response enum: True (active), False (inactive)

Check out these entries, answers already filled in.
CN/C(=N\c1ccc(OC)c2ccccc12)SC    False
COC(=O)c1ccc(C)cc1CC1Cc2cc(C)ccc2C1=O (stereo unspecified)    False
COc1ccc(C(=O)OC2C=COC(C)C2OC(=O)c2ccc(OC)cc2)cc1 (stereo unspecified)    False
COC(=O)/C=C1/OC(c2ccc(C)cc2C)=CC1=O    False
Cc1nc(-[n+]2nc(-c3ccncc3)nn2-c2ccccc2)sc1C    False

Query :: State the result this test recorded for [O-][S+](Nc1ccccc1)c1ccc(-c2ccccc2)cc1 (stereo unspecified) .
Result :: False

Query :: State the result this test recorded for "C#CCOC(=O)c1ccc(OC(C)=O)cc1" .
Result :: False

Query :: State the result this test recorded for "c1ccc2c(NCCCCCCNc3c4ccccc4nc4ccccc34)c3ccccc3nc2c1" .
Result :: True

Query :: State the result this test recorded for "CC(=O)ON(C(C)=O)c1ccc(-c2nc3ccccc3s2)cc1" .
Result :: False

Query :: State the result this test recorded for NC(CS)C(=O)NCCNc1ccc(NCCNC(=O)C(N)CS)c2c1C(=O)c1c(O)ccc(O)c1C2=O (stereo unspecified) .
Result :: True

Query :: State the result this test recorded for COc1cc2c(cc1OC)CC(N=[N+]=[N-])c1cc(OC)c(OC)cc1/C=C\2 (stereo unspecified) .
Result :: False
